Experiment: yeast display, Sf9 membrane polyspecificity reagent, FACS + sequencing; frameworks hold sequencing errors
MEASURED PROPERTY: polyreactivity (PSR sort gate)

{"RESIDUES": "QVQLVESGRGLVQAGGSLRLSCAASGRTFYSNAMGWYRQAPGKERELVAGINWSGVSTYYADSVKGRFTISRDNAKNTVYLQMNSLKPEDTAVYYCAADTYAGYNGNYWGQGTQVTVSS", "MEASURED VALUE": "high polyreactivity"}
{"RESIDUES": "QVQLVESGGGLVQAGGSLPLSCAASGFIFYRYTMGWYRQAPGKERELVAAITRNGVSTYYADSVKGRFTISRDNAKNTVYLQMNSLKPEDTAVYYCAAQRYRTGDSWGQGTQVTVSS", "MEASURED VALUE": "high polyreactivity"}
{"RESIDUES": "QVQLVESGGGLVQAGGSLRLSCAASGSIFGGYAMGWYRPAPGKERELVAAIDESGGSTYYADSVKGRFTISRDNAKNTVYLQMNSLKPEDTAVYYCLVFRDDSGPGDYYYWGQGTQVTVSS", "MEASURED VALUE": "low polyreactivity"}
{"RESIDUES": "QVQLVESGGGLVQAGGSLRLSCAASGFIFVVYAMGWYRQAPGKERELVATISSGGGTYYADSVKGRFTISRDNAKNSVYFQMNSLKPEDTAVYYCAARRSRLYHFGGNNYWGQGTQVTVSS", "MEASURED VALUE": "high polyreactivity"}
{"RESIDUES": "QVHLVESGGGLVQAGGSLRLSCADSGRIILDYAMGWYRQAPGKERELVAAITWGGGSTNYADSVKGRFTNSRDNAKNTVYLQMNRLKPEDTAVYYCNADPHDQYDYWGKGTQVTVSS", "MEASURED VALUE": "low polyreactivity"}

QUERY: Name the recorded polyreactivity (PSR sort gate) of the item QVQLVESGGGLVQAGGSLRLSCAASGSIFVDYAMGWYRQAPGKERELVASISGGGSSTYYADSVMGRFTISRDNAKNTVYLQMNSLKPEDTALYYCARDGVRSSSEYDYWGQGTQVTVSS in your answer.
RESULT: low polyreactivity

QUERY: Name the recorded polyreactivity (PSR sort gate) of the item QVQLVESGGGLVQAGGSLRLSCAASGSTFPTYAMGWYRQAPGKERELVADITWSGGSTYYADSVKGRFTISRDNAKNTVYLQMNSLKPEDTAVYYCAAVFKAGSAYDYWGQGTQVTVSS in your answer.
RESULT: high polyreactivity

The origin of these recorded values is the nanobody polyreactivity screen of Harvey et al. (2022).
